Known 3F8 Ortho Proliferation Signal 1:10 of a selection of binders
- Assayed target: T1, orthogonal hCD122 receptor (hoRb), hCD122 with H133D and Y134F (human, UniProt P14784 27-550)
- T1 sequence: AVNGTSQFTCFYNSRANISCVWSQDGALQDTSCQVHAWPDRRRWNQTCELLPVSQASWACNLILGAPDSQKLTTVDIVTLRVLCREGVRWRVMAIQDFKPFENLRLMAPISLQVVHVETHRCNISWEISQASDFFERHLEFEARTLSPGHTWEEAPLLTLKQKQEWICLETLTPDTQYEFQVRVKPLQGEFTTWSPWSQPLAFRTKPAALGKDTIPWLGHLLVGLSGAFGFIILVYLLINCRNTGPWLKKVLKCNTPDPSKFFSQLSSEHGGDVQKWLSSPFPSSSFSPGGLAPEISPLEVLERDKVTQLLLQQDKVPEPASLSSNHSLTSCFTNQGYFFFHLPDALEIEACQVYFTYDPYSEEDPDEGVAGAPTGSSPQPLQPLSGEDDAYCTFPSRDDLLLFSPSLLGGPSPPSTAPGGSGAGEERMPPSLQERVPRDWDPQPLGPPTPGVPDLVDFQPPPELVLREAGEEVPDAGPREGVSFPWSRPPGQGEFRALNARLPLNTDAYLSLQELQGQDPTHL
- Procedure details: cell-based or functional assay
Metric: 3F8 Ortho Proliferation Signal 1:10 (cts/min)

• SQVLSA (ligand) APTSSSTKKTQLQLSQLLVLLSAILNGINNYKNPKLTRMLTFKFYMPKKATELKHLQCLEEELKPLEEVLNLAQSKNFHLRPRDLISNINVIVLELKGSETTFMCEYADETATIVEFLNRWITFCQSIISTLT = 14500
• Q126H, SQVLKA (ligand) APTSSSTKKTQLQLSQLLVLLKAILNGINNYKNPKLTRMLTFKFYMPKKATELKHLQCLEEELKPLEEVLNLAQSKNFHLRPRDLISNINVIVLELKGSETTFMCEYADETATIVEFLNRWITFCHSIISTLT = 38600
• Q126M, SQVLKA (ligand) APTSSSTKKTQLQLSQLLVLLKAILNGINNYKNPKLTRMLTFKFYMPKKATELKHLQCLEEELKPLEEVLNLAQSKNFHLRPRDLISNINVIVLELKGSETTFMCEYADETATIVEFLNRWITFCMSIISTLT = 33200
• SQVLMA (ligand) APTSSSTKKTQLQLSQLLVLLMAILNGINNYKNPKLTRMLTFKFYMPKKATELKHLQCLEEELKPLEEVLNLAQSKNFHLRPRDLISNINVIVLELKGSETTFMCEYADETATIVEFLNRWITFCQSIISTLT = 11100
